FYI, the data here is from patent US11001872B2.

# System: protein sample
# Test: Protein quality control screen: melting point temperature vs pH and NaCl concentration
# Format: physicochemical
# Study Conditions: pH 7; NaCl Concentration 1.5
Outcome Measure: protein melting point temperature (°C)
Express it in °C; write the number only.

State the recorded protein melting point temperature for this entry: [Cl-].[Na+] [sodium chloride]
77.5

* * *

# Test system: protein sample
# Test: Protein quality control screen: melting point temperature vs pH and NaCl concentration
# Assay type: physicochemical
# Study Conditions: pH 7.5; NaCl Concentration 0.125
Outcome Measure: protein melting point temperature
Include the unit right after the number.

State the recorded protein melting point temperature for this entry: [Cl-].[Na+] [sodium chloride]
76.5 °C
